Reference source: ChEMBL document CHEMBL1126400

# target of assay: Platelet-activating factor receptor (Rattus norvegicus)
# measurement notes: In vivo inhibition of 10 nmole/kg PAF-induced plasma N-acetyl-beta-glucosaminidase (NAGA) after oral administration to rats
# Type: organism-based
# Set-up: concentration or dose not given beside the values
property measured: inhibition (%)

[[record]]
compound = "CCCS(=O)(=O)c1cc(C2CC[C@@H](c3cc(OC)c(OC)c(OC)c3)O2)cc(OC)c1OCCSc1ccc(N(C)C)cc1 (some centres not stated)"
unit_tag = "%"
reading = 57

[[record]]
compound = "CCCS(=O)(=O)c1cc(C2CC[C@@H](c3cc(OC)c(OC)c(OC)c3)O2)cc(OC)c1OCCSc1ccncc1 (some centres not stated)"
unit_tag = "%"
reading = 15

[[record]]
compound = "CCCS(=O)(=O)c1cc(C2CC[C@@H](c3cc(OC)c(OC)c(OC)c3)O2)cc(OC)c1OCCSc1ccc(C(=O)O)cc1 (some centres not stated)"
unit_tag = "%"
reading = 23

[[record]]
compound = "CCCS(=O)(=O)c1cc(C2CC[C@@H](c3cc(OC)c(OC)c(OC)c3)O2)cc(OC)c1OCCSc1ncc[nH]1 (some centres not stated)"
unit_tag = "%"
reading = 13

[[record]]
compound = "CCCS(=O)(=O)c1cc(C2CC[C@@H](c3cc(OC)c(OC)c(OC)c3)O2)cc(OC)c1OCCSc1cccc(N)c1 (some centres not stated)"
unit_tag = "%"
reading = 4

[[record]]
compound = "CCCS(=O)(=O)c1cc(C2CC[C@@H](c3cc(OC)c(OC)c(OC)c3)O2)cc(OC)c1OCCSc1ccc(O)cc1 (some centres not stated)"
unit_tag = "%"
reading = 75

[[record]]
compound = "CCCS(=O)(=O)c1cc(C2CC[C@@H](c3cc(OC)c(OC)c(OC)c3)O2)cc(OC)c1OCCSc1ccc(C(N)=O)cc1 (some centres not stated)"
unit_tag = "%"
reading = 32


====

# target of assay: Platelet-activating factor receptor (Homo sapiens, UniProt P25105)
# Sequence (P25105 whole entry): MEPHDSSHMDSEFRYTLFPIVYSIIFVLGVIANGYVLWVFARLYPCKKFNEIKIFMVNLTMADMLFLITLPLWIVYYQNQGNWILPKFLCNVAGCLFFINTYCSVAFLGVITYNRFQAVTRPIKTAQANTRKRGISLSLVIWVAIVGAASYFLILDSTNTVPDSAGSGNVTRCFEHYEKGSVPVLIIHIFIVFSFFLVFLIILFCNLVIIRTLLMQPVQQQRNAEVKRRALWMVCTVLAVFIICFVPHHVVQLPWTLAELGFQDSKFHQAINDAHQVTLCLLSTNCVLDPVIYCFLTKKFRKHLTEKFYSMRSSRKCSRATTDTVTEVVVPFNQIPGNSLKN
# measurement notes: In vitro inhibition of [3H]-C18 PAF binding to human platelet membrane Platelet activating factor receptor was determined
property measured: Ki (nM)

[[record]]
compound = "CCCOc1c(OC)cc([C@H]2CC[C@H](c3cc(OC)c(OC)c(OC)c3)O2)cc1S(C)(=O)=O (single isomer, unassigned)"
unit_tag = "nM"
reading = 14.3


====

# target of assay: Platelet-activating factor receptor (Homo sapiens, UniProt P25105)
# measurement notes: Compound was evaluated for inhibition of binding of [3H]-C18 PAF to human platelet membrane Platelet activating factor receptor
property measured: Ki (nM)

[[record]]
molecule = "CCCS(=O)(=O)c1cc(C2CC[C@@H](c3cc(OC)c(OC)c(OC)c3)O2)cc(OC)c1OCCS(=O)(=O)c1ccccc1 (stereo partly specified)"
reading = 1


====

# target of assay: Platelet-activating factor receptor (Homo sapiens, UniProt P25105)
# measurement notes: In vitro inhibition of [3H]-C18 PAF binding to human platelet membrane Platelet activating factor receptor.
# Set-up: concentration or dose not given beside the values
# condition notes: concentration not given here
Outcome label depends on inhibition relative to 60%: at/above gives 1.0, below gives 0.0.

[[record]]
compound = "CCCS(=O)(=O)c1cc(C2CC[C@@H](c3cc(OC)c(OC)c(OC)c3)O2)cc(OC)c1OCCSc1ccccc1O (stereo partly specified)"
discrete_label = 0.0

[[record]]
compound = "CCCS(=O)(=O)c1cc(C2CC[C@@H](c3cc(OC)c(OC)c(OC)c3)O2)cc(OC)c1OCCS(=O)(=O)c1ccc(C#N)cc1 (stereo partly specified)"
discrete_label = 1.0

[[record]]
compound = "CCCS(=O)(=O)c1cc(C2CC[C@@H](c3cc(OC)c(OC)c(OC)c3)O2)cc(OC)c1OCCS(=O)(=O)c1ccc(O)cc1 (stereo partly specified)"
discrete_label = 1.0


====

Below, each entry is listed alongside its reported inhibition.
# target of assay: Platelet-activating factor receptor (Homo sapiens, UniProt P25105)
# measurement notes: In vitro inhibition of [3H]-C18 PAF binding to human platelet membrane Platelet activating factor receptor.
# Set-up: concentration or dose not given beside the values
# condition notes: concentration not given here
property measured: inhibition (%)

[[record]]
compound = "CCCS(=O)(=O)c1cc(C2CC[C@@H](c3cc(OC)c(OC)c(OC)c3)O2)cc(OC)c1OCCSc1ncc[nH]1 (stereo partly drawn)"
target_of_assay = "Platelet-activating factor receptor (Homo sapiens, UniProt P25105)"
reading = 60

[[record]]
compound = "CCCS(=O)(=O)c1cc(C2CC[C@@H](c3cc(OC)c(OC)c(OC)c3)O2)cc(OC)c1OCCSc1cccc(O)c1 (stereo partly drawn)"
target_of_assay = "Platelet-activating factor receptor (Homo sapiens, UniProt P25105)"
reading = 61

[[record]]
compound = "CCCS(=O)(=O)c1cc(C2CC[C@@H](c3cc(OC)c(OC)c(OC)c3)O2)cc(OC)c1OCCSc1ccc(N)cc1 (stereo partly drawn)"
target_of_assay = "Platelet-activating factor receptor (Homo sapiens, UniProt P25105)"
reading = 60

